Below is a list of entries, each paired with its recorded Ki value.
# TARGET: serotonin reuptake sites (Rattus norvegicus, UniProt P31652)
# Construct: from tissue
# Sequence (P31652 whole entry): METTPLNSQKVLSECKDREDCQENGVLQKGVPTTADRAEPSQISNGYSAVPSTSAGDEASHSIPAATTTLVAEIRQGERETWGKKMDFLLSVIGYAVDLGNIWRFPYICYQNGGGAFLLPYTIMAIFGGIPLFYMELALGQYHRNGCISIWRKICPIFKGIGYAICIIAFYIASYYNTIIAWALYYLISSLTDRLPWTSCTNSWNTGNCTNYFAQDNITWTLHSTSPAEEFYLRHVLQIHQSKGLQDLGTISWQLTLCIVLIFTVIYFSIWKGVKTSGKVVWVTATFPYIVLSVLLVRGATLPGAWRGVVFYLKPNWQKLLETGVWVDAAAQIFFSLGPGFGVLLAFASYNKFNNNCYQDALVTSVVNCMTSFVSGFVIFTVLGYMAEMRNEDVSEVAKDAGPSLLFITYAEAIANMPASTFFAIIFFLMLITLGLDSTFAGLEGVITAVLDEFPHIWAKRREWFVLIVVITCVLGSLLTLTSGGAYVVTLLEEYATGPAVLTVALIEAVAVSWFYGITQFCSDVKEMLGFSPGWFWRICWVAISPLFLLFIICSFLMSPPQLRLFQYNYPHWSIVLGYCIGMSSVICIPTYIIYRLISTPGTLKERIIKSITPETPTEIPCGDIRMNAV
# PROCEDURE_SUMMARY: In vitro affinity for serotonin reuptake sites ([3H]-paroxetine binding assay)
# RECORDED_CONDITIONS: receptor binding; read-out: 5-HT reuptake binding pKi (converted)
# Experimental: In Vitro Affinity for Serotonin Reuptake Sites Affinity of the compounds for serotonin reuptake sites was determined using the receptor binding assay described by E. Habert et al.: “Characterisation of [^3H]-paroxetine binding to rat cortical membranes”, Eur. J. Pharmacol., 118, 107-114, 1985.
Number only, in nM; omit the unit.

Examples from the recorded data:
COMPOUND: COc1ccc(C#N)cc1OCCCN1CCN(c2cccc3[nH]c(=O)oc23)CC1 [compound 24]
MEASURED_RESULT: 12.6
//
COMPOUND: N#Cc1cccc(SCCCCN2CCN(c3cccc4[nH]c(=O)oc34)CC2)c1 [compound 20]
MEASURED_RESULT: 3.16

The recorded Ki for entry CN(CCCCN1CCN(c2cccc3c2oc(=O)n3C)CC1)c1cccc(C#N)c1 [compound 35] equals 0.631

Given item N#Cc1cccc(OCCCCN2CCN(c3cccc4[nH]c(=O)oc34)CC2)c1 [compound 6] , the value recorded as its Ki is 3.98

For record CN(CCCN1CCN(c2cccc3[nH]c(=O)oc23)CC1)c1cccc(C#N)c1 [compound 15] the listed Ki is 0.794

Form: compound = O=c1[nH]c2cccc(N3CCN(CCCOc4cccc(C(F)(F)F)c4)CC3)c2o1 [compound 17] ; Ki = 50.1

The reported value for O=c1[nH]c2cccc(N3CCN(CCCCOc4cccc(F)c4)CC3)c2o1 [compound 9] in terms of Ki is 100

Recorded Ki (compound N#Cc1cccc(OCCCN2CCN(c3cc(Cl)cc4[nH]c(=O)oc34)CC2)c1 [compound 26] ): 10

Kindly note the recorded Ki for CN(CCN1CCN(c2cccc3[nH]c(=O)oc23)CC1)c1cccc(C#N)c1 [compound 14] , which is 1

# Ki (compound: Cn1c(=O)oc2c(N3CCN(CCCCOc4cccc(F)c4)CC3)cccc21 [compound 31] ) is 5.01

====

# TARGET: dopamine-D2 receptors (Rattus norvegicus, UniProt P61169)
# Construct: labels dopamine receptors in rat pituitary and brain; from tissue
# Sequence (P61169 whole entry): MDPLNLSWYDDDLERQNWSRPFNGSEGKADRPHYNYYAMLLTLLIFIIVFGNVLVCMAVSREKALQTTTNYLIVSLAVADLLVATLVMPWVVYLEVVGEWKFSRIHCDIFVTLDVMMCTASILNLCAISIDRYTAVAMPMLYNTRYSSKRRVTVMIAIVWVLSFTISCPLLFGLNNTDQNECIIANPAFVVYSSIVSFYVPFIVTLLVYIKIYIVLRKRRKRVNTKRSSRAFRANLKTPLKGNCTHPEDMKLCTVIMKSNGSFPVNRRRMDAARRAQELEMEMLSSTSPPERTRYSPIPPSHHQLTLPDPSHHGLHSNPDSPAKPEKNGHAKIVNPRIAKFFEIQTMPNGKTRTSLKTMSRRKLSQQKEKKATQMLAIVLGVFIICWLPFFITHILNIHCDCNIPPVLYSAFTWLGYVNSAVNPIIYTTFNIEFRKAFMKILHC
# PROCEDURE_SUMMARY: In vitro affinity for dopamine-D2 receptors ([3H]-spiroperidol receptor binding assay)
# RECORDED_CONDITIONS: read-out: Dopamine-D2 binding pKi (converted)
MEASUREMENT_KIND: Ki (nM)
Quick note: give the figure in nM, leave out the unit.

COMPOUND: CN(CCCCN1CCN(c2cccc3c2oc(=O)n3C)CC1)c1cccc(C#N)c1 [compound 35]
Ki [nM]: 100

COMPOUND: N#Cc1cccc(OCCCN2CCN(c3cc(Cl)cc4[nH]c(=O)oc34)CC2)c1 [compound 26]
Ki [nM]: 10

COMPOUND: CN(CCCN1CCN(c2cccc3[nH]c(=O)oc23)CC1)c1cccc(C#N)c1 [compound 15]
Ki [nM]: 6.31

COMPOUND: N#Cc1cccc(OCCCCN2CCN(c3cccc4[nH]c(=O)oc34)CC2)c1 [compound 6]
Ki [nM]: 1

COMPOUND: Cn1c(=O)oc2c(N3CCN(CCCCOc4cccc(F)c4)CC3)cccc21 [compound 31]
Ki [nM]: 63.1

# input for lookup
# value of Ki, dopamine-D2 receptors (Rattus norvegicus, UniProt P61169), item O=c1[nH]c2cccc(N3CCN(CCCCOc4cccc(F)c4)CC3)c2o1 [compound 9] = 6.31

====

# TARGET: Human dopamine D2,L receptors (Homo sapiens)
# Construct: host or cells: CHO-K1
# Sequence (P14416 whole entry): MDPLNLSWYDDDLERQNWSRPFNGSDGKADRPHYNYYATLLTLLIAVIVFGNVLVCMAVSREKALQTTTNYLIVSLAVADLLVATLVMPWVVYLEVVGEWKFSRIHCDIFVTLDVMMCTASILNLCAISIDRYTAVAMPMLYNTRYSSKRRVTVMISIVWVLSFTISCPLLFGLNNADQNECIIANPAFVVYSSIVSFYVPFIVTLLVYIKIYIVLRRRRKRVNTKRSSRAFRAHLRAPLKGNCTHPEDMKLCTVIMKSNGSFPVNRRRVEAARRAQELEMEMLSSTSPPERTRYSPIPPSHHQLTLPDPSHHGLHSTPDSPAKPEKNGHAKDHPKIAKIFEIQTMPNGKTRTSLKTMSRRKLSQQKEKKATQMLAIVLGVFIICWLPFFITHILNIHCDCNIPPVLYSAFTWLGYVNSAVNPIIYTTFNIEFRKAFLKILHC
# PROCEDURE_SUMMARY: Inhibition of forskolin-induced [3H]-cAMP accumulation in CHO-K1 cells
# Format: cell-based
# RECORDED_CONDITIONS: cloned human dopamine D2,L receptors in CHO-K1 cells; full agonist ε=1, full antagonist ε=0
Mark Not fulfilled for Dopamine-D2 cAMP accum ε (intrinsic activity) values under 0.6, and Fulfilled for everything at or above.

Worked cases, answers included:
STRUCTURE: COc1ccc(C#N)cc1OCCCN1CCN(c2cccc3[nH]c(=O)oc23)CC1
ASSIGNED_LABEL: Fulfilled
--
STRUCTURE: CN(CCN1CCN(c2cccc3[nH]c(=O)oc23)CC1)c1cccc(C#N)c1
ASSIGNED_LABEL: Not fulfilled
--
STRUCTURE: Cn1c(=O)oc2c(N3CCN(CCCCOc4cccc(F)c4)CC3)cccc21
ASSIGNED_LABEL: Not fulfilled
--
STRUCTURE: CN(CCCCN1CCN(c2cccc3c2oc(=O)n3C)CC1)c1cccc(C#N)c1
ASSIGNED_LABEL: Not fulfilled
--
STRUCTURE: O=c1[nH]c2cccc(N3CCN(CCCOc4cccc(C(F)(F)F)c4)CC3)c2o1
ASSIGNED_LABEL: Not fulfilled

Turning now to a further compound:
Query: Record `O=c1[nH]c2cccc(N3CCN(CCCCOc4cccc(F)c4)CC3)c2o1` ; criterion: Dopamine-D2 cAMP accum ε (intrinsic activity) no lower than 0.6. Met?
Reply: Fulfilled

====

Where a name gives a salt, the structure may show the parent alone.
Quick reference for melting point among some compounds

Please review the following examples before continuing.
COMPOUND: O=c1[nH]c2cccc(N3CCN(CCCOc4cccc(C(F)(F)F)c4)CC3)c2o1
MEASUREMENT_KIND: melting point
MEASURED_RESULT: 140 to 142 °C
//
COMPOUND: COc1ccc(C#N)cc1OCCCN1CCN(c2cccc3[nH]c(=O)oc23)CC1
MEASUREMENT_KIND: melting point
MEASURED_RESULT: 189 to 190 °C
//
COMPOUND: O=c1[nH]c2cccc(N3CCN(CCCCOc4cccc(F)c4)CC3)c2o1
MEASUREMENT_KIND: melting point
MEASURED_RESULT: 153 to 155 °C
//
COMPOUND: CN(CCCN1CCN(c2cccc3[nH]c(=O)oc23)CC1)c1cccc(C#N)c1 (as salt: HCl)
MEASUREMENT_KIND: melting point
MEASURED_RESULT: 195 to 196 °C
//
COMPOUND: N#Cc1cccc(SCCCCN2CCN(c3cccc4[nH]c(=O)oc34)CC2)c1 (as salt: HCl)
MEASUREMENT_KIND: melting point
MEASURED_RESULT: 168 to 170 °C
//
COMPOUND: Cn1c(=O)oc2c(N3CCN(CCCCOc4cccc(F)c4)CC3)cccc21
MEASUREMENT_KIND: melting point
MEASURED_RESULT: 95 to 97 °C

Short answer for `CN(CCCCN1CCN(c2cccc3c2oc(=O)n3C)CC1)c1cccc(C#N)c1` : melting point was 87 to 89 °C

// sample CN(CCN1CCN(c2cccc3[nH]c(=O)oc23)CC1)c1cccc(C#N)c1 (as salt: HCl) , its melting point was 230 to 231 °C

Short answer for N#Cc1cccc(OCCCN2CCN(c3cc(Cl)cc4[nH]c(=O)oc34)CC2)c1 (as salt: HCl) : melting point was 251 to 254 °C

Given item `N#Cc1cccc(OCCCCN2CCN(c3cccc4[nH]c(=O)oc34)CC2)c1` , the value recorded as its melting point is 165 to 168 °C

====

# TARGET: dopamine-D2 receptors (Rattus norvegicus, UniProt P61169)
# Construct: labels dopamine receptors in rat pituitary and brain; from tissue
# PROCEDURE_SUMMARY: In vitro affinity for dopamine-D2 receptors ([3H]-spiroperidol receptor binding assay)
# RECORDED_CONDITIONS: read-out: Dopamine-D2 binding pKi (converted)
# Procedure: In Vitro Affinity for Dopamine-D2 Receptors Affinity of the compounds for dopamine-D2 receptors was determined using the receptor binding assay described by 1. Creese, R. Schneider and S. H. Snyder: “[^3H]-Spiroperidol labels dopamine receptors in rat pituitary and brain”, Eur. J. Pharmacol., 46, 377-381, 1977.
MEASUREMENT_KIND: Ki (nM)
Provide only the numeric value, understood in nM.

STRUCTURE: CN(CCN1CCN(c2cccc3[nH]c(=O)oc23)CC1)c1cccc(C#N)c1
U: nM
Ki: 15.8

Ki recorded for this compound, `COc1ccc(C#N)cc1OCCCN1CCN(c2cccc3[nH]c(=O)oc23)CC1` , is 1.26

Sure, the documented Ki for `O=c1[nH]c2cccc(N3CCN(CCCOc4cccc(C(F)(F)F)c4)CC3)c2o1` is 25.1

Entry `N#Cc1cccc(SCCCCN2CCN(c3cccc4[nH]c(=O)oc34)CC2)c1` — recorded Ki = 3.98

====

# TARGET: Human dopamine D2,L receptors (Homo sapiens)
# Construct: host or cells: CHO-K1
# PROCEDURE_SUMMARY: Inhibition of forskolin-induced [3H]-cAMP accumulation in CHO-K1 cells
# Assay type: cell-based
# RECORDED_CONDITIONS: cloned human dopamine D2,L receptors in CHO-K1 cells; full agonist ε=1, full antagonist ε=0
Below is a list of entries, each paired with its recorded Dopamine-D2 cAMP accum ε (intrinsic activity) value.

COMPOUND: N#Cc1cccc(OCCCN2CCN(c3cc(Cl)cc4[nH]c(=O)oc34)CC2)c1 [compound 26]
MEASURED_RESULT: 0.79

For the compound N#Cc1cccc(OCCCCN2CCN(c3cccc4[nH]c(=O)oc34)CC2)c1 [compound 6] , the measured Dopamine-D2 cAMP accum ε (intrinsic activity) on Human dopamine D2,L receptors (Homo sapiens) was 0.76

Entry N#Cc1cccc(SCCCCN2CCN(c3cccc4[nH]c(=O)oc34)CC2)c1 [compound 20] under Human dopamine D2,L receptors (Homo sapiens) had Dopamine-D2 cAMP accum ε (intrinsic activity) of 0.98

Kindly note: Human dopamine D2,L receptors (Homo sapiens), CN(CCCN1CCN(c2cccc3[nH]c(=O)oc23)CC1)c1cccc(C#N)c1 [compound 15] , Dopamine-D2 cAMP accum ε (intrinsic activity) value reported: 0.61

Source: patent US8101619B2
